# credit: patent US9434743B2

- SYSTEM UNDER TEST: human MetAP2 enzyme (Homo sapiens, UniProt P50579)
- Sequence (P50579 whole entry): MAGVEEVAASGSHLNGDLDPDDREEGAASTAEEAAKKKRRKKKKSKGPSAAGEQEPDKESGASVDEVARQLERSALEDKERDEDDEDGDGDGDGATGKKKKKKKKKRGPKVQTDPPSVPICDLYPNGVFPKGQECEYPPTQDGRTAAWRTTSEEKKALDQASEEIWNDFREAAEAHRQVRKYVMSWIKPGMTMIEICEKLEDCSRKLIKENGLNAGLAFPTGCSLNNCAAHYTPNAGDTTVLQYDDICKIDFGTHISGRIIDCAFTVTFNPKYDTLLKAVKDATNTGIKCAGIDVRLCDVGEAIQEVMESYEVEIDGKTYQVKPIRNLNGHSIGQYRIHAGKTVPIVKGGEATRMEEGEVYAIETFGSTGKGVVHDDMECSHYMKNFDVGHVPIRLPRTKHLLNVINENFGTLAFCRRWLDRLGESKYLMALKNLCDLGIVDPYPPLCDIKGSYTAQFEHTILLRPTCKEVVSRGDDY
- EXPERIMENTAL DETAILS: MetAP2 enzyme assay, enzyme complexed with cobalt ions
- CONDITION CONTEXT: MetAP2 Co pIC50, MetAP2 enzyme complexed with cobalt ions; Met-AMC substrate at Km
MEASURED ENDPOINT: IC50 (nM)

# COMPOUND, UNITS TEXT, IC50
records = [
    ("O=c1[nH]cnc2[nH]nc(-c3cc(C(F)(F)F)cc4[nH]ncc34)c12", "nM", 501),
]

P = Cc1cc(Cn2nc(C)c(-c3cc(C(F)(F)F)cc4[nH]ncc34)c2CO)on1 (single isomer, unassigned)
Q = NS(=O)(=O)c1ccc(-c2cc(C(F)(F)F)cc3[nH]ncc23)c(Cl)c1
Q: // compare measured IC50, left P , right Q , return larger Record your answer as the label of the chosen record.
A: Q
(Q: 39.8 nM, P: 15.8 nM)

###

- SYSTEM UNDER TEST: human MetAP2 enzyme (Homo sapiens)
- EXPERIMENTAL DETAILS: MetAP2 enzyme assay, enzyme complexed with manganese ions
- CONDITION CONTEXT: MetAP2 Mn pIC50, MetAP2 enzyme complexed with manganese ions; Met-AMC substrate at Km
pIC50: −log10 of the molar value.
MEASURED ENDPOINT: pIC50

Previously resolved entries follow.
# SMILES STRING, pIC50
measured = [
    ("CC(C)CNC(=O)c1cccc(-c2cc(C(F)(F)F)cc3[nH]ncc23)c1", 7.60),
    ("Cn1cc(C(=O)NCCO)cc(-c2cc(C(F)(F)F)cc3[nH]ncc23)c1=O", 8.00),
]

1 = Cc1cc(S(N)(=O)=O)ccc1-c1cc(C(F)(F)F)cc2[nH]ncc12
2 = COc1ncc(-c2cc(C(F)(F)F)cc3[nH]ncc23)cc1C(=O)N1CCN(C)CC1
Q: // compare measured pIC50, left 1 , right 2 , return larger Record your answer as the label of the chosen record.
A: 2

###

- SYSTEM UNDER TEST: human MetAP2 enzyme (Homo sapiens, UniProt P50579)
- EXPERIMENTAL DETAILS: MetAP2 enzyme assay, enzyme complexed with manganese ions
- CONDITION CONTEXT: MetAP2 Mn pIC50, MetAP2 enzyme complexed with manganese ions; Met-AMC substrate at Km
pIC50: −log10 of the molar value.
MEASURED ENDPOINT: pIC50

Previously resolved entries follow.
# MOLECULE, MEASURED ENDPOINT, NUMERIC READOUT
rows = [
    ("O=C1Cc2ccc(-c3cc(C(F)(F)F)cc4[nH]ncc34)cc2N1", "pIC50", 8.30),
    ("Cc1nc2cc(-c3cc(C(F)(F)F)cc4[nH]ncc34)cnc2[nH]1", "pIC50", 8.10),
    ("Cc1nc(C)c(-c2cc(C(F)(F)F)cc3[nH]ncc23)s1", "pIC50", 8.00),
    ("Cc1ccc(C(=O)N2CC(O)C2)cc1-c1cc(C(F)(F)F)cc2[nH]ncc12", "pIC50", 8.00),
]

1 = Cn1ccc2c(-c3cc(C(F)(F)F)cc4[nH]ncc34)cccc21
2 = Cc1nn(CC(=O)N(C)C)c(C)c1-c1cc(C(F)(F)F)cc2[nH]ncc12
3 = FC(F)(F)c1cc(-c2cccc3cc[nH]c23)c2cn[nH]c2c1
4 = Cc1cc(Cn2nc(C)c(-c3cc(C(F)(F)F)cc4[nH]ncc34)c2CO)on1 (single isomer, unassigned)
Q: Ascending by pIC50, please: list the molecules accordingly. # respond with the labels, arranged in the requested order
A: 3, 2, 1, 4
